Data provenance is patent US20090325964A1.

molecular target: rat mGluR5 receptor (Rattus norvegicus, UniProt P31424); construct: expressed in transfected cells; host or cells: HEK-293; experiment: [3H]-MPEP displacement binding assay, HEK-293 cell membranes expressing rat mGluR5; settings: [3H]-MPEP displacement, rat mGluR5; read-out: Median Ki
Sequence (P31424 21-1203): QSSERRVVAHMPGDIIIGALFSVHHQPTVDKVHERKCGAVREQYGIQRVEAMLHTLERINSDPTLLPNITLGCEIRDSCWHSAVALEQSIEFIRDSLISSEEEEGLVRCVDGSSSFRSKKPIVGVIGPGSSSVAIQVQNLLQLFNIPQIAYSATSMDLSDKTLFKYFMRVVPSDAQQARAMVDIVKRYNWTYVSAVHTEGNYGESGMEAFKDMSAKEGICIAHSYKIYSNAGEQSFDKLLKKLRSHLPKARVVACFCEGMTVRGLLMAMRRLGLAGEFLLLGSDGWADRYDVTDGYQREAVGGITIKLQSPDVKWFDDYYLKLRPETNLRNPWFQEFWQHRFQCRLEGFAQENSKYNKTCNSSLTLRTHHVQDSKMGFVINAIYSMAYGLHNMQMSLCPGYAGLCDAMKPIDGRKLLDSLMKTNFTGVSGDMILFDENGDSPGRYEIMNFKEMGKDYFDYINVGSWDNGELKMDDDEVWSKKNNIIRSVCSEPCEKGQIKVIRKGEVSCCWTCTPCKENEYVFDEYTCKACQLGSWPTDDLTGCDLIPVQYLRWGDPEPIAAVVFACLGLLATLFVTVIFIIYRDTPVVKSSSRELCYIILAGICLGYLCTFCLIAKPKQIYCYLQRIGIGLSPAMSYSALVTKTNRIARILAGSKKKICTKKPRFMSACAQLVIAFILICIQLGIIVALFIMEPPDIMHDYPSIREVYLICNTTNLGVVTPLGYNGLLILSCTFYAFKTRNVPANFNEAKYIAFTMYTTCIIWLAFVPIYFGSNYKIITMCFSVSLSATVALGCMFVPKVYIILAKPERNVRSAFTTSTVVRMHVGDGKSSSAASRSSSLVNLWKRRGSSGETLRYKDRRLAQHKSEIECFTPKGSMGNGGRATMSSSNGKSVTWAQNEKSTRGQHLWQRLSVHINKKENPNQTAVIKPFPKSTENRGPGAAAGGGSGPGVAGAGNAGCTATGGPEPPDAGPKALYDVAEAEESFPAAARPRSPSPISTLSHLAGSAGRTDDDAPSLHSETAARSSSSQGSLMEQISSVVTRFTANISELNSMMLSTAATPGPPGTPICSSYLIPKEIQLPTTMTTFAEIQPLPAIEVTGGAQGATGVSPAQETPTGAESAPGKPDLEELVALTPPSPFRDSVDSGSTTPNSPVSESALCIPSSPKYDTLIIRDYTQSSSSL
pKi: −log10 of the molar value.
Respond with y for pKi values of 7 and above, n for values below.

- Compound: "O=C(c1ccc(OCC2CC2)c(C#Cc2ccccn2)c1)N1CCN(c2noc3ccccc23)CC1 [Compound 324]"
  Label: "y"
- Compound: "COc1ccc(C(=O)N2CCN(c3ncc(Br)cn3)CC2)cc1C#Cc1ccccn1 [Compound 262]"
  Label: "y"
- Compound: "COc1ccc(C(=O)N2CCN(c3nccnc3C#N)CC2)cc1C#Cc1ccccn1 [Compound 193]"
  Label: "y"
- Compound: "COc1ccc(C(=O)N2CCN(C(=O)c3ccc(OC)c(C#Cc4ccccn4)c3)CC2)cc1 [Compound 265]"
  Label: "y"

Query: Kindly determine if pKi recorded for COc1ccc(C(=O)N2CCN(c3ncccn3)CC2)cc1C#Cc1cccnc1 [Compound 354] is above or exactly 7.
Result: n

Query: Entry COc1ccc(C(=O)N2CCN(c3cc4ccc(Br)cc4cn3)CC2)cc1C#Cc1ccccn1 [Compound 261] please
Result: n

* * *

target: rat mGluR5 receptor (Rattus norvegicus); construct: expressed in transfected cells; host or cells: HEK-293; assay: [3H]-MPEP displacement binding assay, HEK-293 cell membranes expressing rat mGluR5; conditions: [3H]-MPEP displacement, rat mGluR5 membranes; read-out: Median Ki
Property: Ki; scope: individual compounds

- Chemical Smiles: "N#Cc1cccnc1N1CCN(C(=O)c2ccc(Cl)c(C#Cc3ccccn3)c2)CC1"
  Recorded Result: "63 nM"
- Chemical Smiles: "COc1ccnc(N2CCN(C(=O)c3ccc(C(F)(F)F)c(C#Cc4ccccn4)c3)CC2)n1"
  Recorded Result: "40 nM"
- Chemical Smiles: "O=C(c1ccc(C(F)(F)F)c(C#Cc2ccccn2)c1)N1CCN(c2ncc(Cl)cc2Cl)CC1"
  Recorded Result: "2920 nM"
- Chemical Smiles: "O=C(c1ccc(Cl)c(C#Cc2ccccn2)c1)N1CCN(c2ccncc2)CC1"
  Recorded Result: "79 nM"
- Chemical Smiles: "O=C(c1ccc(Cl)c(C#Cc2ccccn2)c1)N1CCN(c2cnccn2)CC1"
  Recorded Result: "13 nM"

Query: Can you look up the measured Ki of O=C(c1ccc(C(F)(F)F)c(C#Cc2ccccn2)c1)N1CCN(c2noc3ccccc23)CC1 for me?
Result: 4 nM

Query: Moving on to O=C(c1ccc(Cl)c(C#Cc2ccccn2)c1)N1CCN(c2ncccn2)CC1
Result: 10 nM

Query: Can you handle COc1cccc(N2CCN(C(=O)c3ccc(Cl)c(C#Cc4ccccn4)c3)CC2)c1 next?
Result: 19 nM

* * *

Here the recorded inhibition at 10 µM is given for each entry.
molecular target: rat mGluR5 receptor (Rattus norvegicus, UniProt P31424); construct: expressed in transfected cells; host or cells: HEK-293; experiment: [3H]-MPEP displacement binding assay, HEK-293 cell membranes expressing rat mGluR5; conditions: single point, @ 10 μM compound; Table 6; read-out: PCT INHIB (%) @ 10 μM
The reply should contain only the number, in %.

Worked examples, 4 molecules total:
- Chemical Smiles: "COc1cccc(C#Cc2cccc(CN3CCN(c4ccccn4)CC3)c2)c1"
  Tested Target: "rat mGluR5 receptor (Rattus norvegicus, UniProt P31424)"
  inhibition at 10 µM [%]: 0
- Chemical Smiles: "C(#Cc1cccc(CN2CCN(c3ccccn3)CC2)c1)Cc1ccccc1"
  Tested Target: "rat mGluR5 receptor (Rattus norvegicus, UniProt P31424)"
  inhibition at 10 µM [%]: 0
- Chemical Smiles: "Oc1cccc(C#Cc2cccc(CN3CCN(c4ccccn4)CC3)c2)c1"
  Tested Target: "rat mGluR5 receptor (Rattus norvegicus, UniProt P31424)"
  inhibition at 10 µM [%]: 13
- Chemical Smiles: "C(#Cc1cccc(CN2CCN(c3ccccn3)CC2)c1)C1=CCCCC1"
  Tested Target: "rat mGluR5 receptor (Rattus norvegicus, UniProt P31424)"
  inhibition at 10 µM [%]: 0

Now for the molecule whose inhibition at 10 µM we want.
Query: Return reported inhibition at 10 µM; argument: Nc1cccc(C#Cc2cccc(CN3CCN(c4ccccn4)CC3)c2)c1
Result: 0
